The reader will find reported pKd values listed item by item below.
- TEST_SYSTEM: T1, Extracellular domain (ECD) of the canine IL-4 receptor alpha-V5 epitope-AviTag-His Tag (canine)
- T1 construct: monomeric form isolated by size exclusion; also called canine IL-4RA-V5-Avi-His; canine IL-4RA
- T1 chain: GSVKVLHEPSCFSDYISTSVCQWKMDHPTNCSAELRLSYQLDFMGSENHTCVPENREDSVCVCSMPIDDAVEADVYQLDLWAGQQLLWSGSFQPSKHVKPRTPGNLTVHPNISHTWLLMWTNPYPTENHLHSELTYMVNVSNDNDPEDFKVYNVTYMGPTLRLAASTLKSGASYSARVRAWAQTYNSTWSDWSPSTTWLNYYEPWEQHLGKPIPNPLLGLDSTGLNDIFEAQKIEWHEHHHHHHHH
- ASSAY_PROCEDURE: SPR, Fab-SASA captured on BSA;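 also: biacore T200 SPR, Fab-SASA variants from E. coli conditioned medium captured on BSA-coated CM5 chip, canine IL-4RA injected 120 s then 420 s dissociation, 1:1 model fit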
pKd: −log10 of the molar value.
PROPERTY_LABEL: pKd

TB640_005 Fab-SASA VH-Y110R (Fab, V domains shown, not shown: SASA tag then His-tag) VH: EVQLVESGGDLVKPGGSLRLSCVASGFTFRDYAMTWVRQAPGKGLQWVSLISGSGGKTYYADAVKGRFTISRDNAKNTLYLQMNSLRAEDTAVYYCAVDRLTKTIRPQYRGLWVWGQGTLVTVSS VL: DIVMTQTPLSLSVSPGETASISCRSSQSLLYSIGYNYLDWYLQKPGQSPQGLIYLGSKRASGVPDRFSGSGSGTDFTLRISRVEANDTGVYYCMQGLQSPLTFGQGTKLEIKR | 8.02
TB640_005 Fab-SASA VL-T102G (Fab, V domains shown, not shown: SASA tag then His-tag) VH: EVQLVESGGDLVKPGGSLRLSCVASGFTFRDYAMTWVRQAPGKGLQWVSLISGSGGKTYYADAVKGRFTISRDNAKNTLYLQMNSLRAEDTAVYYCAVDRLTKTIRPQYYGLWVWGQGTLVTVSS VL: DIVMTQTPLSLSVSPGETASISCRSSQSLLYSIGYNYLDWYLQKPGQSPQGLIYLGSKRASGVPDRFSGSGSGTDFTLRISRVEANDTGVYYCMQGLQSPLGFGQGTKLEIKR | 8.24
